Readings of IC50 for the listed compounds
Molecular target: full-length beta-Catenin (Uniprot ID P35222) (Homo sapiens, UniProt P35222)
Construct: 10 nM full-length beta-Catenin (Uniprot ID P35222)
Sequence (P35222 1-781): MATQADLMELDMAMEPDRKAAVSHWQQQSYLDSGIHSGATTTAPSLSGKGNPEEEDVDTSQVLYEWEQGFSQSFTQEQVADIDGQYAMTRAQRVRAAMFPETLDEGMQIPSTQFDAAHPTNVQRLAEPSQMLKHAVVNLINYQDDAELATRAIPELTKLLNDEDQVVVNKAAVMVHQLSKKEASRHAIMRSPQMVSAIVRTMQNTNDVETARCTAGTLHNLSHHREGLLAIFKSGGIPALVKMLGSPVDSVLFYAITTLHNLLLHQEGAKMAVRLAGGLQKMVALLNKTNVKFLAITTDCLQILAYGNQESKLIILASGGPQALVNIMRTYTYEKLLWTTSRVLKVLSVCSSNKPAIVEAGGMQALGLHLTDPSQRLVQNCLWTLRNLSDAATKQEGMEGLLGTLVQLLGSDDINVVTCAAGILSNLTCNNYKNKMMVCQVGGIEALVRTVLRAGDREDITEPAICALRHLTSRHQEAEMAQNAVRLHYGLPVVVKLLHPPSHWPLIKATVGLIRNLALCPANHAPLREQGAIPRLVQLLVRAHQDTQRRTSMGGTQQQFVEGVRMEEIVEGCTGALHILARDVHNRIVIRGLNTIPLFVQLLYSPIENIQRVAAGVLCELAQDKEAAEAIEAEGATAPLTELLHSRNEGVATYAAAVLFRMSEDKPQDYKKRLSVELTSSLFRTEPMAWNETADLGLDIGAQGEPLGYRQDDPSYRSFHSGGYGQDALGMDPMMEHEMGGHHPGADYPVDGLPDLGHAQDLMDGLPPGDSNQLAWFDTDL
Assay: Fluorescence polarization IC50 (beta-catenin / 5FAM-TCF4 10-53 competition)
Assay type: binding
Settings: fluorescence polarization, beta-catenin; read-out: FP EC50
Answer with a number only, understood to be in nM.

Look over these answered cases.
[[record]]
compound = "CC(=O)N1CCC[C@]12CC=CCCCC1(CCCC=CCCCCCC[C@@](C)(C(=O)N[C@@H](Cc3ccccc3)C(=O)N[C@@H](Cc3csc4ccccc34)C(=O)N[C@@H](CCC(N)=O)C(N)=O)NC(=O)[C@H](C(C)C)NC(=O)[C@H](Cc3ccccc3)NC(=O)[C@H](C)NC(=O)[C@H](C)NC(=O)[C@H](CC(=O)O)NC(=O)[C@H](CC(=O)O)NC1=O)NC(=O)[C@H](CCC(N)=O)NC(=O)[C@H](CC(=O)O)NC2=O (stereo partly drawn) [I-346]"
measured_target = "full-length beta-Catenin (Uniprot ID P35222) (Homo sapiens, UniProt P35222)"
result_value = 180

[[record]]
compound = "CC(=O)N1CCC[C@]12CC=CCCCC1(CCCC=CCCCCCC[C@@](C)(C(=O)N[C@@H](Cc3cccc(F)c3)C(=O)N[C@@H](Cc3csc4ccccc34)C(=O)N[C@@H](CCC(N)=O)C(N)=O)NC(=O)[C@H](C(C)C)NC(=O)[C@H](Cc3ccccc3)NC(=O)[C@H](C)NC(=O)[C@H](C)NC(=O)[C@H](CC(N)=O)NC(=O)[C@H](CC(=O)O)NC1=O)NC(=O)[C@H](C)NC(=O)[C@H](CC(=O)O)NC2=O (stereo partly drawn) [I-381]"
measured_target = "full-length beta-Catenin (Uniprot ID P35222) (Homo sapiens, UniProt P35222)"
result_value = 3650


With those in mind, consider the next compound.
Lab note: CC(=O)N1CCC[C@]12CC=CCCCC1(CCCC=CCCCCCC[C@@](C)(C(=O)N[C@@H](Cc3ccsc3)C(=O)N[C@@H](Cc3csc4ccccc34)C(=O)N[C@@H](CCC(N)=O)C(N)=O)NC(=O)[C@H](CC(N)=O)NC(=O)[C@H](Cc3ccccc3)NC(=O)[C@H](C)NC(=O)[C@H](C)NC(=O)[C@H](CN(CC(=O)O)C(C)C)NC(=O)[C@H](CC(=O)O)NC1=O)NC(=O)[C@H](CC(C)(C)C)NC(=O)[C@H](CC(=O)O)NC2=O (stereo partly drawn) [I-1453] gave IC50 of 52

====

Readings of IC50 for the listed compounds
Biological target: full-length beta-Catenin (Uniprot ID P35222) (Homo sapiens, UniProt P35222)
Construct: 10 nM full-length beta-Catenin (Uniprot ID P35222)
Assay: Fluorescence polarization IC50 (beta-catenin / 5FAM-TCF4 10-53 competition)
Assay type: binding
Conditions: read-out: beta-Catenin FP IC50
Answer with a number only, understood to be in nM.

[[record]]
compound = "CC(=O)N1CCC[C@]12CC=CCCCC1(CCCC=CCCCOC(=O)N3CC[C@@](C(=O)N[C@@H](Cc4ccsc4)C(=O)N[C@@H](Cc4csc5ccccc45)C(=O)N[C@@H](C(N)=O)[C@H](C)O)(C3)NC(=O)[C@H](CC(N)=O)NC(=O)[C@H](Cc3ccccc3)NC(=O)[C@H](C)NC(=O)[C@H](C)NC(=O)[C@H](CN(CC(=O)O)CC(F)(F)F)NC(=O)[C@H](CC(=O)O)NC1=O)NC(=O)[C@H](CC(C)(C)C)NC(=O)[C@H](CC(=O)O)NC2=O (stereo partly drawn) [I-949]"
measured_target = "full-length beta-Catenin (Uniprot ID P35222) (Homo sapiens, UniProt P35222)"
result_value = 2260

[[record]]
compound = "CC(=O)N1CCC[C@]12CC=CCCCC1(CCCC=CCCCOC(=O)N3CC[C@@](C(=O)N[C@@H](Cc4ccccc4)C(=O)N[C@@H](Cc4csc5ccccc45)C(=O)N[C@@H](CCC(N)=O)C(N)=O)(C3)NC(=O)[C@H](CC(C)C)NC(=O)[C@H](Cc3ccccc3)NC(=O)[C@H](C)NC(=O)[C@H](C)NC(=O)[C@H](CC(=O)O)NC(=O)[C@H](CC(=O)O)NC1=O)NC(=O)[C@H](CC(C)(C)C)NC(=O)[C@H](CC(=O)O)NC2=O (stereo partly drawn) [I-1072]"
measured_target = "full-length beta-Catenin (Uniprot ID P35222) (Homo sapiens, UniProt P35222)"
result_value = 10


With those in mind, consider the next compound.
IC50 of CCN(CC(=O)O)C[C@@H]1NC(=O)[C@H](CC(=O)O)NC(=O)C2(CCCC=CCCCOC(=O)N3CC[C@@](C(=O)N[C@@H](Cc4ccsc4)C(=O)N[C@@H](Cc4csc5ccccc45)C(=O)N[C@@H](CCC(N)=O)C(N)=O)(C3)NC(=O)[C@H](CC(N)=O)NC(=O)[C@H](Cc3ccccc3)NC(=O)[C@H](C)NC(=O)[C@H](C)NC1=O)CCCC=CC[C@]1(CCCN1C(C)=O)C(=O)N[C@@H](CC(=O)O)C(=O)N[C@@H](CC(C)(C)C)C(=O)N2 (stereo partly drawn) [I-964] , assay on full-length beta-Catenin (Uniprot ID P35222) (Homo sapiens, UniProt P35222), is 1440

====

Molecular target: full-length beta-Catenin (Uniprot ID P35222) (Homo sapiens)
Construct: 10 nM full-length beta-Catenin (Uniprot ID P35222)
Experiment: Fluorescence polarization IC50 (beta-catenin / 5FAM-TCF4 10-53 competition)
Type: binding
Conditions: fluorescence polarization; read-out: beta-Catenin FP IC50
Readings of IC50 for the listed compounds
Answer with a number only, understood to be in nM.

Look over these answered cases.
[[record]]
compound = "CC[C@H](C)[C@@H]1NC(=O)[C@H](CC(=O)O)NC(=O)[C@]2(CC=CCCCC3(CCCC=CCCCCCC[C@@](C)(C(=O)N[C@@H](Cc4ccccc4)C(=O)N[C@@H](Cc4csc5ccccc45)C(=O)N[C@@H](CCC(N)=O)C(N)=O)NC(=O)[C@H](CCC(N)=O)NC(=O)[C@H](Cc4ccccc4)NC(=O)[C@H](Cc4ccccc4)NC(=O)[C@H](C)NC(=O)[C@H](CCC(=O)O)NC(=O)[C@H](CC(=O)O)NC3=O)NC1=O)CCCN2C(C)=O (stereo partly drawn) [I-660]"
endpoint_name = "IC50"
result_value = 544

[[record]]
compound = "CC[C@H](C)[C@@H]1NC(=O)[C@H](CC(=O)O)NC(=O)[C@]2(CC=CCCCC3(CCCC=CCCCCCC[C@@](C)(C(=O)N[C@@H](Cc4ccccc4)C(=O)N[C@@H](Cc4csc5ccccc45)C(=O)N[C@@H](CCC(N)=O)C(N)=O)NC(=O)[C@H](CCC(N)=O)NC(=O)[C@H](Cc4ccccc4)NC(=O)[C@H](C)NC(=O)[C@H](C)NC(=O)[C@H](CCC(=O)O)NC(=O)[C@H](CC(=O)O)NC3=O)NC1=O)CCCN2C(=O)CCc1ccccn1 (stereo partly drawn) [I-602]"
endpoint_name = "IC50"
result_value = 3150


With those in mind, consider the next compound.
Lab note: CC(=O)N1CCC[C@]12CC=CCCCC1(CCCC=CCCCOC(=O)N3CC[C@@](C(=O)N[C@@H](Cc4ccccc4Cl)C(=O)N[C@@H](Cc4csc5ccccc45)C(=O)N[C@@H](CO)C(N)=O)(C3)NC(=O)[C@H](CO)NC(=O)[C@H](Cc3ccccc3)NC(=O)[C@H](C)NC(=O)[C@H](C)NC(=O)[C@H](Cc3cccc(C(=O)O)c3)NC(=O)[C@H](CC(=O)O)NC1=O)NC(=O)[C@H](CC(C)(C)C)NC(=O)[C@H](CC(=O)O)NC2=O (stereo partly drawn) [I-1903] gave IC50 of 14
